# Lookup of reported CAR-J2 EC50 (PGLALA-CAR-J activation, L363 target cells) keyed by entry
Molecular target: human GPRC5D (human, UniProt Q9NZD1 1-345)
Sequence (Q9NZD1 whole entry): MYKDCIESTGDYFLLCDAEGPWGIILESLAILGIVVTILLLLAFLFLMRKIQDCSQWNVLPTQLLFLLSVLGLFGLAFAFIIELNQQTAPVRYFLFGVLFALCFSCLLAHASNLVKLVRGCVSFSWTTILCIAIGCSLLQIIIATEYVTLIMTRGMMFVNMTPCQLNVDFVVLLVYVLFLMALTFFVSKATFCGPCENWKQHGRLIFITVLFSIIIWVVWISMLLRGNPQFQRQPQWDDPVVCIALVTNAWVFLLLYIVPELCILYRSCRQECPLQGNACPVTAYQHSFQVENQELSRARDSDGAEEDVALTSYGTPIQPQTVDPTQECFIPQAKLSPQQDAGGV
Experiment: cell-based or functional assay
# output: numeric value plus its unit

P1AE5744 (antibody, V domains shown) VH: QVQLVESGGGVVQPGRSLRLSCAASGFSFSNYGMAWVRQAPGKGLEWVASISTGGGNTYYADSVKGRFTISRDNSKNTLYLQMNSLRAEDTAVYYCTRHDRGGLYWGQGTMVTVSS VL: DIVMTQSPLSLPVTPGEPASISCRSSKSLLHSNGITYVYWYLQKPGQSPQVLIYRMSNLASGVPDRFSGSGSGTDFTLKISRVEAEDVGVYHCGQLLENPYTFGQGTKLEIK: 0.00363 µg/mL

Alright, here's another binder for you.
Asked: Quick one: CAR-J2 EC50 (PGLALA-CAR-J activation, L363 target cells) for P1AE5756 (antibody, V domains shown) VH: EVQLVESGGGLVQPGGSLRLSCAASGFSFSNYGMAWVRQAPGKGLEWVASISTGGGNTYYRDSVKGRFTISRDNAKNTLYLQMNSLRAEDTAVYYCTRHDRGGLYWGQGTMVTVSS VL: DIVMTQSPLSLPVTPGEPASISCRSSKSLLHSNGITYVYWYLQKPGKSPQVLIYRMSNLASGVPDRFSGSGSGTDFTLKISRVEAEDVGVYHCGQLLENPYTFGQGTKLEIK ?
Given back: 0.17 µg/mL
